Data origin, for the record: ChEMBL document CHEMBL5325401

assaySummary: Antiproliferative activity against HEK293 cells incubated for 72 hrs by MTT assay
Type: toxicity, cell-based
conditionSummary: human, read-out: LD50
endpoint: CC50 at 72 h (µM)

[[record]]
smilesnotation = "COc1c(-c2ccc(O)c(O)c2)oc2cc(O)cc(O)c2c1=O"
value = 30.5


* * *

assaySummary: Inhibition of DNA polymerase (unknown origin)
Set-up: species or system Homo sapiens
pIC50: −log10 of the molar value.
endpoint: pIC50

[[record]]
smilesnotation = "O=C(O)C1=CC(=C(c2ccc(O)c(C(=O)O)c2)c2ccc(O)c(C(=O)O)c2)C=CC1=O"
endpoint = "pIC50"
value = 6.40


* * *

assaySummary: Kinetic solubility of compound in neutral buffer at pH 7.4 at 250 uM measured after 24 hrs by UPLC/MS analysis
Type: physicochemical
conditionSummary: read-out: Kinetic_solubility
Use 20 µM as the dividing line for solubility kinetic at 24 h, 250 µM, with the line itself on the True side and lower values as False.

[[record]]
smilesnotation = "O=c1cc(-c2ccccc2)oc2cc(O)c(O)c(O)c12"
category = "False"

[[record]]
smilesnotation = "O=c1c(OCCCO)c(-c2ccc(O)c(O)c2)oc2cc(O)cc(O)c12"
category = "True"

[[record]]
smilesnotation = "O=c1cc(-c2ccc(O)cc2)oc2cc(O)cc(O)c12"
category = "False"

[[record]]
smilesnotation = "O=c1cc(-c2ccc(O)c(O)c2)oc2cccc(O)c12"
category = "False"

[[record]]
smilesnotation = "COc1c(-c2ccc(O)c(O)c2)oc2cc(O)cc(O)c2c1=O"
category = "True"

[[record]]
smilesnotation = "O=c1c(O)c(-c2ccc(O)c(O)c2)oc2cc(O)cc(O)c12"
category = "False"

[[record]]
smilesnotation = "O=c1cc(-c2ccc(O)c(O)c2)oc2cc(F)cc(O)c12"
category = "False"

[[record]]
smilesnotation = "O=c1cc(-c2cccc(O)c2)oc2cc(O)cc(O)c12"
category = "False"

[[record]]
smilesnotation = "O=c1cc(-c2ccc(O)c(O)c2)oc2cc(O)cc(O)c12"
category = "True"

[[record]]
smilesnotation = "COc1cc(O)cc2oc(-c3ccc(O)c(O)c3)cc(=O)c12"
category = "True"


* * *

assaySummary: Antiproliferative activity against HEK293 cells incubated for 48 hrs by MTT assay
Type: toxicity, cell-based
conditionSummary: human, HEK293 cells, read-out: LD50
endpoint: CC50 at 48 h

[[record]]
smilesnotation = "O=c1c(OCCCO)c(-c2ccc(O)c(O)c2)oc2cc(O)cc(O)c12"
value = "> 100 µM"


* * *

Reported IC50 values follow for various molecules
system: DNA polymerase eta (Homo sapiens)
Sequence (Q9Y253 whole entry, the tested form may be a part): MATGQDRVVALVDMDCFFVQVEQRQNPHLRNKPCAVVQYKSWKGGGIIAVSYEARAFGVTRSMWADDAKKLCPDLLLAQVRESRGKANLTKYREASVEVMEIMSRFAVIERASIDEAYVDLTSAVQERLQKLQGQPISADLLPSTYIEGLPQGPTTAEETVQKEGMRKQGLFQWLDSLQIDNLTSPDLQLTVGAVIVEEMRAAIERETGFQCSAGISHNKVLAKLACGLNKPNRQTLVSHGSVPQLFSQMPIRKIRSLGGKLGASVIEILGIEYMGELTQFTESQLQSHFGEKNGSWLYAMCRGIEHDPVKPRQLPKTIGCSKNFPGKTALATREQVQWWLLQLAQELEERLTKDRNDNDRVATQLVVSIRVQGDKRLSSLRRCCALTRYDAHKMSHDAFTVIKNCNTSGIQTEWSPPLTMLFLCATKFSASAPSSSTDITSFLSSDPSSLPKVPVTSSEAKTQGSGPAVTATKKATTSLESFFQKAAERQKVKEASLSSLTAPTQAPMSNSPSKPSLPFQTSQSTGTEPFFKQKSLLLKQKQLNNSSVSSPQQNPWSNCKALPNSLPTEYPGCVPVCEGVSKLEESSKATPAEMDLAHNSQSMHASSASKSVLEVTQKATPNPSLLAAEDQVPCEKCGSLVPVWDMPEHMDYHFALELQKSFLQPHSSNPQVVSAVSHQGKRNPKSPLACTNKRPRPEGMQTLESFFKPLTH
assaySummary: Inhibition of C-terminal 6xHis-tagged human DNA polymerase eta (1 to 511 residues) expressed in Escherichia coli BL21 DE3 using 5'-IRD700-GCAGGTCGACTCCAAAG-3' primer/ 5'-TCGGTACCGGGTTAGCCTTTGGAGTCGACCTGC-3' template as DNA substrate incubated for 60 mins in presence of Mg2+ by bromophenol blue staining based assay
endpoint: IC50

[[record]]
molecule = "O=c1cc(-c2ccc(O)c(O)c2)oc2cc(O)ccc12"
value = "27 µM"

[[record]]
molecule = "O=c1c(OCCCO)c(-c2ccc(O)c(O)c2)oc2cc(O)cc(O)c12"
value = "14.7 µM"

[[record]]
molecule = "COc1cccc2oc(-c3ccc(O)cc3C)cc(=O)c12"
value = "98.3 µM"

[[record]]
molecule = "COc1c(-c2ccc(O)cc2)oc2cc(O)cc(O)c2c1=O [ISOKAEMPFERIDE]"
value = "16.1 µM"

[[record]]
molecule = "O=C(O)CCc1cc(=O)c2c(O)cc(O)cc2o1"
value = "> 100 µM"

[[record]]
molecule = "O=c1cc(-c2cccc(O)c2)oc2cc(O)cc(O)c12"
value = "5 µM"

[[record]]
molecule = "CCOc1c(-c2ccc(O)c(O)c2)oc2cc(O)cc(O)c2c1=O"
value = "33.5 µM"

[[record]]
molecule = "O=c1cc(-c2ccc(O)c(O)c2)oc2ccccc12"
value = "30.5 µM"

[[record]]
molecule = "CCCCc1c(-c2ccc(O)c(O)c2)oc2cc(O)cc(O)c2c1=O"
value = "> 100 µM"

[[record]]
molecule = "O=c1cc(-c2ccc3c(c2)OC(F)(F)O3)oc2cc(O)cc(O)c12"
value = "> 100 µM"

[[record]]
molecule = "COc1cc(O)c2c(=O)cc(-c3ccc4c(c3)OC(F)(F)O4)oc2c1"
value = "> 100 µM"

[[record]]
molecule = "O=c1c(O)c(-c2ccc(O)c(O)c2)oc2cc(O)cc(O)c12"
value = "15.8 µM"

[[record]]
molecule = "COc1cccc2oc(-c3ccccc3C(F)(F)F)cc(=O)c12"
value = "> 100 µM"

[[record]]
molecule = "O=c1cc(/C=C/c2ccc(O)c(O)c2)oc2cccc(O)c12"
value = "> 100 µM"

[[record]]
molecule = "O=c1cc(-c2ccccc2)oc2cc(O)cc(O)c12"
value = "14.8 µM"

[[record]]
molecule = "O=c1c(-c2ccc(O)cc2)coc2cc(O)cc(O)c12"
value = "92.4 µM"

[[record]]
molecule = "O=c1cc(Cc2ccc(O)c(O)c2)oc2cccc(O)c12"
value = "> 100 µM"

[[record]]
molecule = "O=c1cc(CCc2ccc(O)c(O)c2)oc2cccc(O)c12"
value = "> 100 µM"

[[record]]
molecule = "COc1cccc2oc(-c3ccccc3F)cc(=O)c12"
value = "> 100 µM"

[[record]]
molecule = "CCCc1c(-c2ccc(O)c(O)c2)oc2cc(O)cc(O)c2c1=O"
value = "87.1 µM"

[[record]]
molecule = "O=c1cc(-c2ccccc2)oc2cc(O)c(O)c(O)c12"
value = "11.8 µM"

[[record]]
molecule = "COc1cccc2oc(-c3ccccc3C)cc(=O)c12"
value = "> 100 µM"

[[record]]
molecule = "O=C(O)c1cc(-c2cc(=O)c3c(O)cc(O)cc3o2)ccc1O"
value = "7.7 µM"

[[record]]
molecule = "CCCCOc1c(-c2ccc(O)c(O)c2)oc2cc(O)cc(O)c2c1=O"
value = "62.4 µM"

[[record]]
molecule = "Cc1c(-c2ccc(O)c(O)c2)oc2cc(O)cc(O)c2c1=O"
value = "84.6 µM"

[[record]]
molecule = "COc1cc(O)cc2oc(-c3ccc(O)c(O)c3)cc(=O)c12"
value = "10.2 µM"

[[record]]
molecule = "O=c1c(O)c(-c2ccc(O)cc2)oc2cc(O)cc(O)c12"
value = "12.7 µM"

[[record]]
molecule = "O=c1cc(-c2ccc(O)cc2)oc2cc(O)cc(O)c12"
value = "22.2 µM"

[[record]]
molecule = "O=C(Nc1ccc(O)c(O)c1)c1cc(=O)c2c(O)cccc2o1"
value = "26.5 µM"

[[record]]
molecule = "O=c1cc(-c2ccc(O)c(O)c2)oc2cc(O)cc(O)c12"
value = "12.7 µM"

[[record]]
molecule = "O=c1cc(-c2ccc(O)c(O)c2)oc2cc(F)cc(O)c12"
value = "13.8 µM"

[[record]]
molecule = "COc1ccc(-c2cc(=O)c3c(OC)c(OC)c(OC)cc3o2)cc1OC"
value = "> 100 µM"

[[record]]
molecule = "COc1c(-c2ccc(O)c(O)c2)oc2cc(O)cc(O)c2c1=O"
value = "10.8 µM"

[[record]]
molecule = "O=c1c(OCCO)c(-c2ccc(O)c(O)c2)oc2cc(O)cc(O)c12"
value = "87.5 µM"

[[record]]
molecule = "O=c1cc(-c2ccc(O)c(O)c2)oc2cccc(O)c12"
value = "8.7 µM"

